- ASSAY COMMENT: nuclear p53 accumulation, HPV+ cells – imaging, p53-positive nuclei imaging, 24 h, 48 h (AID 1508601)
- EXPERIMENTAL CONDITIONS: 24/48 h, measured here: cell number at 24 h, Library stock concentration: 10 mM
The whole screen tested about 5,700 compounds, of which about 85 (1%) were called active. The list comes from a sample in which actives are over-represented; it also holds close analogues and randomly drawn compounds.
Record form. Attribute: nuclei count, normalised. Fill in for each entry.
Write the number in % without appending the unit.

Data request: Given the molecule Nc1ccn(C2OC(CO)C(O)C2F)c(=O)n1 (centres undefined) , what is its reported nuclei count, normalised?
Data returned: 51.2

Data request: Given the molecule O=C1CC(c2ccc([N+](=O)[O-])cc2)=NN1c1ccccc1 , what is its reported nuclei count, normalised?
Data returned: 117

Data request: Given the molecule O=Nc1c(O)[nH]c2c(Cl)c(Cl)ccc12 , what is its reported nuclei count, normalised?
Data returned: 73.5

Data request: Given the molecule COC(=O)N1C(=O)[C@](c2ccccc2)(C2CCCC2)N1C(=O)OC , what is its reported nuclei count, normalised?
Data returned: 90.1

Data request: Given the molecule CCC(C)C(NC(=O)C(C(C)CC)N(C)C(C)=O)C(=O)NC(C(=O)NC(CC(C)C)C(=O)[C@@]1(C)CO1)C(C)O (some centres undefined) , what is its reported nuclei count, normalised?
Data returned: 45.3

Data request: Given the molecule CCC(=O)N1CCN(c2ccc(-n3c(=O)ccc4cnc5ccc(-c6cnc7ccccc7c6)cc5c43)cc2C(F)(F)F)CC1 , what is its reported nuclei count, normalised?
Data returned: 43.7

Data request: Given the molecule COc1cc(=C2C=c3ccccc3=N2)[nH]c1=Cc1[nH]c(C)cc1C , what is its reported nuclei count, normalised?
Data returned: 65.9

Data request: Given the molecule CS(=O)(=O)c1cccc(CNc2nc(Nc3ccc4c(c3)CCC(=O)N4)ncc2C(F)(F)F)c1 , what is its reported nuclei count, normalised?
Data returned: 48.4

Data request: Given the molecule COc1ccc(-c2ccc3ncc4c(c3c2)n(-c2ccc(N3CCNCC3)c(C(F)(F)F)c2)c(=O)n4C)cn1 , what is its reported nuclei count, normalised?
Data returned: 49.1

----------
- ASSAY COMMENT: nuclear p53 accumulation, HPV+ cells – imaging, p53-positive nuclei imaging, 24 h, 48 h (AID 1508601)
- EXPERIMENTAL CONDITIONS: 24/48 h, measured here: cell number at 24 h, concentration not given here
In all, about 5,700 compounds went through this assay and about 85 (1%) were called active. Many of the other results were omitted from the sample, so actives are more common in it than they were.
Record form. Attribute: nuclei count, normalised. Fill in for each entry.
Write the number in % without appending the unit.

Data request: Given the compound Nc1ccccc1NC(=O)c1ccc(CNC(=O)OCc2cccnc2)cc1 , what is its reported nuclei count, normalised?
Data returned: 107

Data request: Given the compound CCCCC[C@H](O)/C=C/[C@H]1[C@H](O)CC(=O)[C@@H]1C/C=C\CCCC(=O)Oc1ccc(NC(C)=O)cc1 , what is its reported nuclei count, normalised?
Data returned: 106

Data request: Given the compound COc1cccc2c(C)cc(N3CCC[C@H]3CO)nc12 , what is its reported nuclei count, normalised?
Data returned: 96.3

Data request: Given the compound O=C(c1cn2cccnc2n1)N1CCCC(Cn2cc(C3CCCC3)nn2)C1 (stereo unspecified) , what is its reported nuclei count, normalised?
Data returned: 84.5

Data request: Given the compound Cn1cc(C2=C(c3cn(CCCSC(=N)N)c4ccccc34)C(=O)NC2=O)c2ccccc21 , what is its reported nuclei count, normalised?
Data returned: 102

Data request: Given the compound Cn1cc(C2=C(c3cn(CCCN)c4ccccc34)C(=O)NC2=O)c2ccccc21 , what is its reported nuclei count, normalised?
Data returned: 114

Data request: Given the compound O=C(O)CCCCCCCCCCCNC(=O)NC12CC3CC(CC(C3)C1)C2 , what is its reported nuclei count, normalised?
Data returned: 106

Data request: Given the compound CCCCCCCCNC(=O)Cc1c(C)n(C(=O)c2ccc(Cl)cc2)c2ccc(OC)cc12 , what is its reported nuclei count, normalised?
Data returned: 104

Data request: Given the compound O=C1OC[C@@H](Cc2cccc(O)c2)[C@@H]1Cc1cccc(O)c1 , what is its reported nuclei count, normalised?
Data returned: 111

Data request: Given the compound CN(CC1COc2ccccc2O1)C(=O)Nc1nncs1 (stereo unspecified) , what is its reported nuclei count, normalised?
Data returned: 103

Data request: Given the compound Cc1nn(C)c(C)c1-c1ccnc(NCC(C)Oc2cccnc2)n1 (stereo unspecified) , what is its reported nuclei count, normalised?
Data returned: 103
